Ref: paper PMC11667666

Molecular target: recombinant α-carboxysome shell (Halothiobacillus neapolitanus, UniProt P45688+P45689+P45690)
Construct: whole self-assembled multi-paralog shell (about 90 nm) from pBAD-cso-2 in E. coli; CsoS1 hexamers, CsoS4 pentamers, CsoS2 linker; with Carboxysome shell vertex protein CsoS4A; Carboxysome shell vertex protein CsoS4B; Carboxysome assembly protein CsoS2
Sequence (O85044 whole entry): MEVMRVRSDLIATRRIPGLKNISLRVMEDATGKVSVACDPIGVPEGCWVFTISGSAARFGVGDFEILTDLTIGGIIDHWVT
Sequence (P45688 whole entry): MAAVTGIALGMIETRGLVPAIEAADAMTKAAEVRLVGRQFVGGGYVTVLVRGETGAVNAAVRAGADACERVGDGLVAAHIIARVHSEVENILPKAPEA
Sequence (O85041 whole entry, further chain): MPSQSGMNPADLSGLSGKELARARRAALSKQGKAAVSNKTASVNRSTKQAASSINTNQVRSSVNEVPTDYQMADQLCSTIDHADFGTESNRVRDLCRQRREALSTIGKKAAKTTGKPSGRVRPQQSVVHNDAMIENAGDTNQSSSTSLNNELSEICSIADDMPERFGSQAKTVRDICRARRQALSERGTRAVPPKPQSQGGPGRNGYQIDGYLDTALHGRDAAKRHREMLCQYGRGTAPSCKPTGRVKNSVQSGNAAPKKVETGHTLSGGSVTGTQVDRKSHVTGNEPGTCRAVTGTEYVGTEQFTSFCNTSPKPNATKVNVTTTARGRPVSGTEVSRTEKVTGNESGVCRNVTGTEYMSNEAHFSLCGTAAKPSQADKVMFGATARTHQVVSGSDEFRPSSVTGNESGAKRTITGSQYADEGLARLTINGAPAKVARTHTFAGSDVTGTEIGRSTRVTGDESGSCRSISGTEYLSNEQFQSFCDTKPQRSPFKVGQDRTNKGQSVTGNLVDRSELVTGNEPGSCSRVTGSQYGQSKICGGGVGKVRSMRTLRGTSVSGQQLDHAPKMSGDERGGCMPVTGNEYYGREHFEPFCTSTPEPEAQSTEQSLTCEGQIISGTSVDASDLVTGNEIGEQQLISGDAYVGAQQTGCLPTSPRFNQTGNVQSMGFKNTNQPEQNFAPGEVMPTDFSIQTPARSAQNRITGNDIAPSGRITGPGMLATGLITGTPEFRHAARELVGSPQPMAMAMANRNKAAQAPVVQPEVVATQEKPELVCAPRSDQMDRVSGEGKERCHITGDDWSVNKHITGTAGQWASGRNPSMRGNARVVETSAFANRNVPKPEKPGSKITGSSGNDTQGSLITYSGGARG
Sequence (O85043 whole entry, further chain): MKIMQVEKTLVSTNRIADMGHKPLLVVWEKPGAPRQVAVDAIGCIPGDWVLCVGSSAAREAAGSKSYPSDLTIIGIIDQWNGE
Sequence (P45689 2-98): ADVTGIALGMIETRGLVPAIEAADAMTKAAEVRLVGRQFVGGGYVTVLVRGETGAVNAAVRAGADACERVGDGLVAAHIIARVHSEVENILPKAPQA
Sequence (P45690 whole entry): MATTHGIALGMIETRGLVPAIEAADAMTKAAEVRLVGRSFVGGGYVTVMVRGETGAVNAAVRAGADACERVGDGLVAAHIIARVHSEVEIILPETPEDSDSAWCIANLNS
Assay: isothermal titration calorimetry
Settings: TBAP (50 μM) titrated into whole shell (3.75 μM); 20 mM Tris-HCl pH 8.0, 150 mM NaCl; multi-protein particle, site not resolved by ITC
pKd: −log10 of the molar value.

# compound-structure-string, pKd
records = [
    ("O=C(O)c1ccc(-c2cc(-c3ccc(C(=O)O)cc3)c3ccc4c(-c5ccc(C(=O)O)cc5)cc(-c5ccc(C(=O)O)cc5)c5ccc2c3c54)cc1", 6.28),
]
